Assay: Plasma stability, rat plasma
Assay type: in vitro ADME
Conditions: male, rat, K2-EDTA plasma
Ends that are not written are not given here.
PROPERTY_MEASURED: half-life at 1 µM (h)

MONOMER_SEQUENCE | PROPERTY_MEASURED | REPORTED_RESULT
KEGVLYVGHHTK [AmyP53] | half-life at 1 µM | 13.1

---

Tested on: plasma proteins
Experiment: Plasma protein binding by rapid equilibration dialysis
Assay type: in vitro ADME, mini-pig
Settings: male, pig, K2-EDTA plasma
Ends that are not written are not given here.
PROPERTY_MEASURED: fraction unbound at 2 h, 5 µM

MONOMER_SEQUENCE | REPORTED_RESULT
KEGVLYVGHHTK [AmyP53] | 0.186
